System: IGROV1 ovarian
Experiment: NCI-60 one-dose screen, 48 h (100 = growth as untreated, 0 = no growth, -100 = all killed)
Details: 10 µM unless noted
This is part of a sample that, as a whole, favours compounds with a hit. Of some 83,000 tested, about 20% had one in any assay.
attribute-measured: growth (%)
Numbers only; they are read as %.

compound | unit-text | growth
COc1cc(C2CC(c3ccc(Cl)cc3)=NN2c2ccc(Cl)cc2)cc(OC)c1OC (centres undefined) | % | 94.8

Can you look up the measured growth of NC(=O)N1N=C(c2ccc(Cl)cc2)CC1c1cn(-c2ccccc2)nc1-c1ccc(Cl)cc1 (centres undefined) for me?
68.8

Then what about the compound O=S1(=O)OC(c2cc(Cl)c(O)c(Br)c2)(c2cc(Cl)c(O)c(Br)c2)c2ccccc21 ?
95.6

Then what about the compound O=C(Nc1cnn2ccc(N3CCC[C@@H]3c3cc(F)ccc3F)nc12)N1CC[C@H](O)C1 ?
105

Then what about the compound Ic1ccccc1-c1ccccc1 ?
117

====

Test system: SF-268 CNS
Test: NCI-60 one-dose screen, 48 h (100 = growth as untreated, 0 = no growth, -100 = all killed)
Conditions: 10 µM unless noted
About 83,000 compounds went through this panel and 20% of them were active in at least one assay; those are over-represented in the sample as a whole.
attribute-measured: growth (%)
Numbers only; they are read as %.

Can you look up the measured growth of CCc1cc2c(c3ccc(C(=O)CBr)cc13)CCCC2 for me?
92.2

Then what about the molecule COc1ccc(Br)cc1NC(=O)Nc1cccc2c1ccn2Cc1ccnc(N)c1 ?
47.5

Then what about the molecule CN[C@@H]1C[C@H]2O[C@@](C)([C@@H]1OC)n1c3ccccc3c3c4c(c5c6ccccc6n2c5c31)C(=O)N[C@H]4O ?
-66.5

Then what about the molecule CC(C)Nc1cc(-c2c[nH]c(C(=O)N[C@H](CO)c3cccc(Cl)c3)c2)c(Cl)cn1 ?
59.6

Then what about the molecule COc1cnc2c(c1)C(=O)c1c-2n(CCCn2ccnc2)c(=O)c2cc(Cl)ccc12 ?
21.9

====

Tested on: SK-MEL-28 melanoma
Assay: NCI-60 one-dose screen, 48 h
Conditions: 10 µM unless noted
The panel holds about 83,000 compounds, 20% with a hit somewhere; the sample as a whole holds those more often. Active and inactive are the calls of the source. How the source made its calls: active means growth percent below 10; inactive means the rest.
Allowed answers: active, inactive

compound | qualitative-label
COc1ccc2c(CCCc3ccc(Cl)cc3Cl)c3[n+](cc2c1OC)CCc1cc2c(cc1-3)OCO2 | active

Write down the call the test reported for this compound. Item: COc1c(OCCCN2CCOCC2)ccc2c3n(c(=NC(=O)c4cnc(N)nc4)nc12)CCN3
active

Then what about the compound COc1ccc(-c2cc3c(oc2=O)-c2ccccc2OC3OC(C)=O)cc1 (centres undefined) ?
inactive

Then what about the compound CCN(CC)C(=O)C[N+](C)(C)CCOC(c1ccccc1)c1ccccc1 ?
inactive

Then what about the compound c1cn2cc(-c3ccc4cn[nH]c4c3)nc(Nc3ccc(N4CCOCC4)cc3)c2n1 ?
inactive

Then what about the compound C=C1C(=O)O[C@H]2[C@H]1CC/C(Cn1cc(-c3cc(C)c(C)cc3C)nn1)=C\CC[C@@]1(C)O[C@@H]21 ?
active

====

Tested on: A549/ATCC NSCLC
Test: NCI-60 one-dose screen, 48 h
Details: 10 µM unless noted
Compounds without any hit were thinned out: in the full panel of roughly 83,000, 20% have a hit. Activity calls are given as the source filed them. How the source made its calls: active means growth percent below 10; inactive means the rest.
Allowed answers: active, inactive

Previously resolved entries follow.
molecule | qualitative-label
C=CC[n+]1c(/C=C/C=C2\N(C)c3ccccc3C2(C)C)sc2ccc(OC)cc21 | inactive
COc1cc2c(Nc3ccc(Br)cc3F)ncnc2cc1OCC1CCN(C)CC1 | inactive
O=C(NC[C@H](O)CO)c1ccncc1Nc1ccc(I)cc1F | inactive
COc1cc2c(cc1OCCCN1Cc3ccc(OCCCCC(=O)N4CCC(CCN5CCCC5)CC4)cc3C1)N=C(N)C21CCCC1 | inactive
Cc1[nH]c(/C=C2\C(=O)Nc3ccc(F)cc32)c(C)c1C(=O)NC[C@H](O)CN1CCOCC1 | inactive

Write down the call the test reported for this molecule. Item: Fc1ccc(NCc2cn(-c3ccccc3)nc2-c2ccc(OCc3ccccc3)cc2)cc1Cl
inactive

Then what about the molecule COc1cc(CCc2cc(NC(=O)c3ccc(N4C[C@@H](C)N[C@@H](C)C4)cc3)n[nH]2)cc(OC)c1 ?
inactive

Then what about the molecule CNc1ncc2cc(-c3cc(NC(=O)NCCC(C)(C)C)c(F)cc3C)c(C)nc2n1 ?
inactive

Then what about the molecule CCc1nc2cc(F)c(/C=C/C(=O)NO)cc2c(=O)n1CCc1ccccc1 ?
inactive

Then what about the molecule Nc1cc2c(cc1Br)-c1c(C(=O)O)cccc1C2O (stereo not given) ?
inactive

Then what about the molecule CO/C=C/C(=O)c1cc2cnc3c(=N)cc(NC(=O)C(C)C)c([nH]1)c23 ?
inactive
